# protocol notes: cell viability in Huh7 cells, primary screen, cytotoxicity control for HCV replication inhibitor project, CellTiter-Glo luminescence, basal, 48 h (AID 1143);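 further: Huh7 hepatoma cells carrying a hepatitis C replication reporter with no stimulus; test concentration not given here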
# setup conditions: Huh7 HCV replicon, higher = more signal, called active from +8 up or from −8 down
Each entry belongs to exactly one class, chosen by where its z-score falls: interval 1: < -3; interval 2: ≥ -3 and < -1; interval 3: ≥ -1

Please review the entries below; each comes with its answer.
C=C(COC)/C(=C/C[C@H](OC(=O)c1ccncc1)c1ccc(OCCO)cc1)c1cnc2ccccc2c1 = interval 3
CCOC(=O)C[C@H]1[C@H](OC(=O)c2ccc(C(=O)c3ccccc3)cc2)[C@@H](NC(=O)c2ccc(-c3ccccc3)cc2)c2cc(OCCCO)ccc2N1C(=O)c1ccccc1 = interval 3
CCOC(=O)[C@H]1C/C=C/C[C@H](C(=O)OCC)C(=O)O[C@H]2[C@@H](OC)O[C@H](CO)[C@@H](OC(=O)Nc3ccc(C#N)cc3)[C@@H]2OC1=O = interval 1
C=C(CCCC)/C(=C/C[C@@H](OC(C)=O)c1ccccc1OCCO)c1cnc2ccccc2c1 = interval 2
C=CC[C@@]1(C(=O)N(C)C)N=C(c2ccc(OCCCO)cc2)O[C@@H]1c1ccccc1N=[N+]=[N-] = interval 2
[N-]=[N+]=Nc1ccccc1C[C@]1(C(=O)NCC(O)CO)N=C(c2ccc(OCCCO)cc2)O[C@H]1c1ccccc1N=[N+]=[N-] (stereo partly drawn) = interval 1

Exam item: Determine which band this compound sits in: O=C1c2ccccc2[C@](Cc2ccccc2I)(C(=O)NC2CC2)[C@H](c2ccc(CO)cc2)N1Cc1ccccc1
Marked response: interval 2

Exam item: Determine which band this compound sits in: C=CCNC(=O)[C@H]1[C@@H]2C(=O)O[C@@H](c3ccccc3)[C@@H](c3ccccc3)N2[C@@H](c2ccccc2OCCO)[C@]12C(=O)Nc1ccc(C#CC3=CCCCC3)cc12
Marked response: interval 1

Exam item: Determine which band this compound sits in: COCCOC(=O)N1C(=O)[C@@]2(c3cc(C#Cc4ccc(OC)cc4)ccc31)[C@H](C(=O)N1CCCCCCC1)[C@H]1C(=O)O[C@H](c3ccccc3)[C@H](c3ccccc3)N1[C@@H]2c1ccc(OCCO)cc1
Marked response: interval 1

Exam item: Determine which band this compound sits in: O=C1O[C@@H](c2ccccc2)[C@@H](c2ccccc2)N2[C@@H](c3ccc(OCCO)cc3)[C@]3(C(=O)Nc4ccccc43)[C@@H](C(=O)NC[C@H](O)c3ccccc3)[C@H]12
Marked response: interval 2

Exam item: Determine which band this compound sits in: NCCCCCNC(=O)[C@@H]1C[C@@H]2C(=O)N[C@@H](Cc3ccccc3)C(=O)N2[C@@H]1c1cccc(OCCO)c1
Marked response: interval 3

Exam item: Determine which band this compound sits in: COc1ccc(C(=O)Nc2ccc(CN3C(=O)[C@@]4(O[C@@H](CCn5cc([C@H](O)c6ccccc6)nn5)[C@H]([Si](C)(C)c5ccc(OC)cc5)[C@H]4C)c4ccccc43)cc2)cc1
Marked response: interval 1

Exam item: Determine which band this compound sits in: CCCCC(=C=CC[C@@H](O)c1ccccc1OCCO)CCO
Marked response: interval 3
